src = patent US20150111251A1

target: Recombinant Human TNF-α/TNFSF1A (human, UniProt P01375 77-233); experiment: cell-based or functional assay
Sequence (P01375 77-233 limits assumed): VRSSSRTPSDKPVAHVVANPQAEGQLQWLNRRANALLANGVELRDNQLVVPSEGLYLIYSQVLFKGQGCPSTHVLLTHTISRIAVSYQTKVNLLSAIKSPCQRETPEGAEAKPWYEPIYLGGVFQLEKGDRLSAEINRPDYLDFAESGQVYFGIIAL
Exercise: for every item that follows, state its recorded TNFα Neutralization Assay IC50 nM (L929 cells).
Quick note: give the figure in nM, leave out the unit.

Looking up AB370 (antibody, V domains shown, Full-length humanized antibody made in HEK 293-6E; also called hMAK199VH.2/hMAK199VL.1a) VH: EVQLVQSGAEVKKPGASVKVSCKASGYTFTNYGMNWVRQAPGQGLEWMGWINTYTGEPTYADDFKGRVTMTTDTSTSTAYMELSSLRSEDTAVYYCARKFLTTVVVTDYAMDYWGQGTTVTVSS VL: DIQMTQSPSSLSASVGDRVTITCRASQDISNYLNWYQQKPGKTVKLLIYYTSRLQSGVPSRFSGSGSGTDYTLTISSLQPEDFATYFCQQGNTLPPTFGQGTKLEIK , I found its TNFα Neutralization Assay IC50 nM (L929 cells) recorded as 3.78

Looking up AB385 (antibody, V domains shown, Full-length humanized antibody made in HEK 293-6E; also called hMAK199VH.2b/hMAK199VL.2a) VH: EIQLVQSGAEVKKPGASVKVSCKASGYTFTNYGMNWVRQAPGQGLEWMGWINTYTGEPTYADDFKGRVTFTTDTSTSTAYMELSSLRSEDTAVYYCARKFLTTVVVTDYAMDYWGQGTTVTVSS VL: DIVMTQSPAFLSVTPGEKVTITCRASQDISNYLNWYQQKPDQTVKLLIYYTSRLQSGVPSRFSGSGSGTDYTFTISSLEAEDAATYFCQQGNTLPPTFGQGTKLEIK , I found its TNFα Neutralization Assay IC50 nM (L929 cells) recorded as 9.76

Looking up AB367 (antibody, V domains shown, Full-length humanized antibody made in HEK 293-6E; also called hMAK199VH.1b/hMAK199VL.2a) VH: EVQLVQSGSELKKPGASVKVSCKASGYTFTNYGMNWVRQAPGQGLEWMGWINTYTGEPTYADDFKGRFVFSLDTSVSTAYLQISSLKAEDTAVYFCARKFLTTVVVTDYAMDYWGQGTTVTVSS VL: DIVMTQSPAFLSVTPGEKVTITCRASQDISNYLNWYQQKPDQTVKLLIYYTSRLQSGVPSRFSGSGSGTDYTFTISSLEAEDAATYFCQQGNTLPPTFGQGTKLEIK , I found its TNFα Neutralization Assay IC50 nM (L929 cells) recorded as 0.53

Looking up AB358 (antibody, V domains shown, Full-length humanized antibody made in HEK 293-6E; also called hMAK199VH.1a/hMAK199VL.1a) VH: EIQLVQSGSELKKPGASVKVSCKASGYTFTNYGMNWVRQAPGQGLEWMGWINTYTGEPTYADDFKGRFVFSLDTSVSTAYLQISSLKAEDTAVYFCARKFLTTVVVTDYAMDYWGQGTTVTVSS VL: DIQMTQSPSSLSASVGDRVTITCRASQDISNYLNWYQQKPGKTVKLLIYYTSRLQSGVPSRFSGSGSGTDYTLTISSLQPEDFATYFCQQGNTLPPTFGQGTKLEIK , I found its TNFα Neutralization Assay IC50 nM (L929 cells) recorded as 0.21

Looking up AB356 (antibody, V domains shown, Full-length humanized antibody made in HEK 293-6E; also called hMAK199VH.1/hMAK199VL.2b) VH: EVQLVQSGSELKKPGASVKVSCKASGYTFTNYGMNWVRQAPGQGLEWMGWINTYTGEPTYADDFKGRFVFSLDTSVSTAYLQISSLKAEDTAVYYCARKFLTTVVVTDYAMDYWGQGTTVTVSS VL: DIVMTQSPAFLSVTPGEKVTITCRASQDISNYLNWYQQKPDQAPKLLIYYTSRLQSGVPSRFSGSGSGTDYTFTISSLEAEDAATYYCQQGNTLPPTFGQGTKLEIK , I found its TNFα Neutralization Assay IC50 nM (L929 cells) recorded as 0.87
